Hello, the source for this data is PubChem BioAssay (NCATS), in case you need it.

Assay: Cell Viability - LYMP2-017 (AID 972);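 further: cells exposed to compound for 24 hours at 37 °C; nearly all actives have a fitted effect of over 55% in size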
Conditions: LYMP2-017 lymphoblastoid cell viability; series mostly up to 92.2 µM
Source text: NIH Chemical Genomics Center [NCGC] NIH Molecular Libraries Screening Centers Network [MLSCN] National Institutes of Environmental Health Sciences [NIEHS] National Toxicology Program [NTP] We have developed a 1536-well cell-based assay for quantitative high throughput screening (qHTS) against a number of cell lines to determine in vitro cytotoxicity of small molecules. […] 8. Detection; Luminescence; Viewlux plate reader […]
Results filed as inconclusive are left out. Active and inactive are the calls of the source. The call rests on the fitted dose curve; in most records, active means well fitted cell-killing curve with a large enough effect; inconclusive means small, poorly fitted or top-dose-only effect; inactive means flat fitted curve, though single readings scatter.
Labels: class 1 = active, class 0 = inactive

{"TEST SMILES": "Cc1ccc([N+](=O)[O-])cc1N", "GROUP": "class 0"}
{"TEST SMILES": "C1OCOCO1", "GROUP": "class 0"}
{"TEST SMILES": "CCCCCCCCCCCCCC(=O)O", "GROUP": "class 0"}
{"TEST SMILES": "Cc1cccc([N+](=O)[O-])c1C", "GROUP": "class 0"}
{"TEST SMILES": "C=CC(=O)OCCOCCOCCOCCOC(=O)C=C", "GROUP": "class 1"}
{"TEST SMILES": "O=[N+]([O-])c1cccc(Cl)c1Cl", "GROUP": "class 0"}
{"TEST SMILES": "CCO[Si](CCCN)(OCC)OCC", "GROUP": "class 0"}
{"TEST SMILES": "O=C(O)c1ccccc1", "GROUP": "class 0"}
